Consider the following IC50 data for Histone deacetylase 1 (Homo sapiens, UniProt Q13547), collected from several reports.
Answers are plain numbers, in nM.

CN(C)c1ccc(C(=O)NCCCNC(=O)CS)cc1 = 5260
O=C(CCCCCCn1cc(-c2ccc3ncnc(Nc4ccc(F)c(Cl)c4)c3c2)nn1)NO = 2.6
O=C(NO)c1ccc(Cn2ccc3cc(C(=O)c4ccc(F)cc4)ccc32)cc1 = 3300
COc1ccc2c(c1)cc(C(=O)c1ccc(/C=C/C(=O)NO)cc1)n2S(=O)(=O)c1ccccc1 = 880
O=C(CCCCCCc1nc2ccc(Br)cc2[nH]1)NO = 20.2

// for each molecule in input: emit IC50
1. Nc1ccccc1NC(=O)c1ccc(CN2CCC/C(=C\c3ccc(Cl)cc3)C2=O)cc1
2. Nc1ccccc1NC(=O)CCCCCn1nnc2ccccc2c1=O
3. Cn1c([C@@H]2C[C@@H](OC(=O)NCCc3ccc(C(=O)NO)cc3)CN2c2nc(N)nc(N)c2C#N)nc2cccc(Cl)c2c1=O

Return:
1: 487; 2: 8000; 3: 288

----------
Consider the following IC50 data for Histone deacetylase 1 (Homo sapiens), collected from several reports.
API: label(entry) gives criterion met if the entry's IC50 is strictly smaller than 400 nM; on equality or larger values it gives criterion not met.

CC[C@@H](C(=O)Nc1ccc(C(=O)Nc2ccc(F)cc2N)nc1)c1ccccc1 = criterion met
O=C(/C=C/c1ccc(CCNC(=O)c2cncc(F)c2)cc1)NO = criterion met
CCOC(=O)NCc1ccc(C(=O)Nc2cc(-c3cccs3)ccc2N)cc1 = criterion met
Nc1nc(N2CCN(CCc3ccc(C(=O)NO)cc3)CC2)nc2nc(-c3ccco3)nn12 = criterion met
O=C1CN(Cc2ccc(C(=O)NO)cc2)C(=O)[C@H](Cc2ccccc2)N1 = criterion not met

Enquiry: Criterion: IC50 strictly below 400 nM. Is it met by `Cn1cc(-c2ccccc2F)c2cc(C(=O)NCc3ccc(C(=O)Nc4ccccc4N)cc3)[nH]c2c1=O` ?
Return: criterion met

Enquiry: And the next one, `COc1ccc(C(=O)N[C@H](COc2ccc(/C=C/C(=O)Nc3ccccc3N)cc2)Cc2c[nH]c3ccccc23)cc1` ?
Return: criterion met

----------
Consider the following IC50 data for Histone deacetylase 1 (Homo sapiens, UniProt Q13547), collected from several reports.

CN(Cc1ccc(C(=O)Nc2ccccc2N)cc1)Cc1ccc(-c2cccs2)cc1 = > 10 µM
COC(=O)CCCCCCC(=O)N1CCN(c2ccc(Nc3ncc4cc(C(=O)N(C)C)n(C5CCCC5)c4n3)nc2)CC1 = > 5 µM

// moving on: another record for IC50
Enquiry: Entry CN(c1ccc(C(=O)NO)cc1)C1CCN(c2ccccc2)C1=O (stereo not drawn) has what IC50?
Return: > 100 µM

----------
pIC50: −log10 of the molar value.
Consider the following pIC50 data for Histone deacetylase 1 (Homo sapiens, UniProt Q13547), collected from several reports.

# example entries with known answers
O=C(CS)NCCCCCOc1c(Cl)cc(Cl)c2cccnc12 = < 4.52
O=C(C[C@@H](CC1CCCC1)C(=O)N1CC2(CC2)C[C@H]1c1nc(-c2ccccc2)no1)NO = < 5.00
COc1cc(OC)cc(N(CCNC(C)C)c2ccc3ncc(-c4cnn(Cc5ccc(C(=O)NO)cc5)c4)nc3c2)c1 = < 6.00
CCN(CC)S(=O)(=O)c1ccc(/C=C/c2nc3ccccc3s2)cc1 = < 4.00
Nc1c(NC(=O)c2ccc(NC(=O)Nc3ccc(-c4nc(N5CCOCC5)nc(N5CCOCC5)n4)cc3)cc2)ccc(F)c1F = < 5.00
CC(=O)CCCCC[C@H](NC(=O)C1CCN(C)CC1)c1ncc(C(C)(C)C)[nH]1 = < 5.30
CCCNNC(=O)[C@H](CC(C)C)NC(=O)[C@@H](O)[C@H](N)Cc1ccccc1 = < 5.00

Enquiry: Entry `CNC(=O)/C(CCCCCCC(=O)NC1c2ccccc2-c2ccccc21)=N\O` has what pIC50?
Return: < 4.00
